measurement description: Oral bioavailability in Swiss Webster mouse at 10 mg/kg
Assay type: ADME, organism-based
assay setup: in vivo
quantity kind: bioavailability (%)
Give the quantity in %, number only.

stdin: Please report the measured bioavailability for COc1ccc(C(=O)N2CCN(c3ccccn3)CC2)cc1C#Cc1ccccn1
stdout: 20

====

measurement description: Half life in Sprague-Dawley rat at 2 mg/kg, iv
Type: ADME, organism-based
Design: dose 2 mg/kg, route intravenous
assay setup: in vivo
quantity kind: half-life (h)
Give the quantity in h, number only.

stdin: Please report the measured half-life for COc1ccc(C(=O)N2CCN(c3ccccn3)CC2)cc1C#Cc1ccccn1
stdout: 1

====

measurement description: Cmax in Sprague-Dawley rat at 10 mg/kg, po
Format: ADME, organism-based
Parameters: dose 10 mg/kg, route oral
assay setup: in vivo
quantity kind: Cmax (µM)
Give the quantity in µM, number only.

stdin: Please report the measured Cmax for COc1ccc(C(=O)N2CCN(c3ccccn3)CC2)cc1C#Cc1ccccn1
stdout: 11.9
